Numbers sourced from patent US20060063755A1.

Target: H1 histamine receptor (Bos taurus)
Sequence (P30546 whole entry): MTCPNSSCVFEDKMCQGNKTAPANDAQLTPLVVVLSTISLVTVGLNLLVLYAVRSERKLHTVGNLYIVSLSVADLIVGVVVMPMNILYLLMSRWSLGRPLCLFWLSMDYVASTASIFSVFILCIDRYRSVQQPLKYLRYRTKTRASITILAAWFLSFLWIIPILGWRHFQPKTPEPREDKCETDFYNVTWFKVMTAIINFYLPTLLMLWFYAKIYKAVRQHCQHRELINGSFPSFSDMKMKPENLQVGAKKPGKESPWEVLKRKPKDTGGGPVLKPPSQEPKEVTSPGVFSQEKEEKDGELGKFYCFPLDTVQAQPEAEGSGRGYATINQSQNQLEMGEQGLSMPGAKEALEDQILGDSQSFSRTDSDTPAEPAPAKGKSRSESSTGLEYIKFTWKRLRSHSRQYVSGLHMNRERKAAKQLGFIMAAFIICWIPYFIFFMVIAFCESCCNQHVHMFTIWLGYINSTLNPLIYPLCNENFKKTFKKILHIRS
measurement_type: Ki
A complete answer gives the number followed by the unit.

Field: example entries. Status: answers known.
# smiles_data, Ki
rows = [
    ("CC(C)(CCN1CCN(C2=Nc3ccccc3Oc3ccc(Cl)cc32)CC1)C(=O)O", "13.8 nM"),
    ("COc1ccc2c(c1)N=C(N1CCN(CC(C)(C)C(=O)O)CC1)c1ccccc1O2", "57.2 nM"),
]

Test system H1 histamine receptor (Bos taurus); read-out Ki; what value for O=C(O)C1(CN2CCN(C3=Nc4ccccc4Oc4ccc(Br)cc43)CC2)CC1 ?
36 nM

Test system H1 histamine receptor (Bos taurus); read-out Ki; what value for COc1ccc2c(c1)N=C(N1CCN(CC(C)(C)C(=O)O)CC1)c1cc(OC)ccc1O2 ?
135 nM

---

Biological target: D2 receptors (Homo sapiens)
Sequence (P14416 whole entry): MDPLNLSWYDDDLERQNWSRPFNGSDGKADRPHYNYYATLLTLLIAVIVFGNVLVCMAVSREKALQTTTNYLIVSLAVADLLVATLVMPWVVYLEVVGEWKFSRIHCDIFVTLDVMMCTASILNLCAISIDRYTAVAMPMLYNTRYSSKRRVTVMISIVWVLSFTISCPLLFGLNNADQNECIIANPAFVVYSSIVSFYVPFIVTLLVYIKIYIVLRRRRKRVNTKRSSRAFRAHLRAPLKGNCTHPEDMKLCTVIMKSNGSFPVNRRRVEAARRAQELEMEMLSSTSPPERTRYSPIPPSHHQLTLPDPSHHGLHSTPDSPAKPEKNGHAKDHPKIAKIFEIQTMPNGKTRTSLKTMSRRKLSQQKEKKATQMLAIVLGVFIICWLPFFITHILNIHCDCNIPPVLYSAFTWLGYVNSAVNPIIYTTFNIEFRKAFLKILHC
Assay: Dopamine D2 binding assay (human)
Method: Binding assays were performed using the disclosed sleep-inducing agents and derivatives selected from those listed in Table 1 in competitive binding assays with known standards for the H1 histamine receptor, and the M1, M2, and M3 muscarinic receptors, alpha 1 and alpha 2 receptors, and D1 and D2 receptors. […]
pKi: −log10 of the molar value.
Listed here: items and their measured pKi.

Field: example entries. Status: answers known.
# compound, measurement_type, reported_value
records = [
    ("CC(C)(CN1CCN(C2=Nc3ccccc3Oc3ccc(O)cc32)CC1)C(=O)O [Compound 14]", "pKi", "< 5.00"),
    ("COc1ccc2c(c1)N=C(N1CCN(CC(C)(C)C(=O)O)CC1)c1ccc(OC)cc1O2 [Compound 42]", "pKi", "< 5.00"),
    ("COc1ccc2c(c1)Oc1ccc(OC)cc1C(N1CCN(CC(C)(C)C(=O)O)CC1)=N2 [Compound 35]", "pKi", "< 5.00"),
    ("COc1ccc2c(c1)C(N1CCN(CC(C)(C)C(=O)O)CC1)=Nc1cc(C)ccc1O2 [Compound 54]", "pKi", 5.97),
    ("CC(C)(CN1CCN(C2=Nc3ccccc3Oc3ccc(F)cc32)CC1)C(=O)O [Compound 4]", "pKi", "< 5.00"),
]

Now for the compound whose pKi we want.
Give its pKi value. Item: Cc1ccc2c(c1)Oc1ccccc1C(N1CCN(CC(C)(C)C(=O)O)CC1)=N2 [Compound 30]
< 5.00

---

Listed here: items and their measured hERG at 10 micromolar (% blocking of the hERG channel).
Target: hERG channel (Homo sapiens, UniProt Q12809)
Sequence (Q12809 whole entry): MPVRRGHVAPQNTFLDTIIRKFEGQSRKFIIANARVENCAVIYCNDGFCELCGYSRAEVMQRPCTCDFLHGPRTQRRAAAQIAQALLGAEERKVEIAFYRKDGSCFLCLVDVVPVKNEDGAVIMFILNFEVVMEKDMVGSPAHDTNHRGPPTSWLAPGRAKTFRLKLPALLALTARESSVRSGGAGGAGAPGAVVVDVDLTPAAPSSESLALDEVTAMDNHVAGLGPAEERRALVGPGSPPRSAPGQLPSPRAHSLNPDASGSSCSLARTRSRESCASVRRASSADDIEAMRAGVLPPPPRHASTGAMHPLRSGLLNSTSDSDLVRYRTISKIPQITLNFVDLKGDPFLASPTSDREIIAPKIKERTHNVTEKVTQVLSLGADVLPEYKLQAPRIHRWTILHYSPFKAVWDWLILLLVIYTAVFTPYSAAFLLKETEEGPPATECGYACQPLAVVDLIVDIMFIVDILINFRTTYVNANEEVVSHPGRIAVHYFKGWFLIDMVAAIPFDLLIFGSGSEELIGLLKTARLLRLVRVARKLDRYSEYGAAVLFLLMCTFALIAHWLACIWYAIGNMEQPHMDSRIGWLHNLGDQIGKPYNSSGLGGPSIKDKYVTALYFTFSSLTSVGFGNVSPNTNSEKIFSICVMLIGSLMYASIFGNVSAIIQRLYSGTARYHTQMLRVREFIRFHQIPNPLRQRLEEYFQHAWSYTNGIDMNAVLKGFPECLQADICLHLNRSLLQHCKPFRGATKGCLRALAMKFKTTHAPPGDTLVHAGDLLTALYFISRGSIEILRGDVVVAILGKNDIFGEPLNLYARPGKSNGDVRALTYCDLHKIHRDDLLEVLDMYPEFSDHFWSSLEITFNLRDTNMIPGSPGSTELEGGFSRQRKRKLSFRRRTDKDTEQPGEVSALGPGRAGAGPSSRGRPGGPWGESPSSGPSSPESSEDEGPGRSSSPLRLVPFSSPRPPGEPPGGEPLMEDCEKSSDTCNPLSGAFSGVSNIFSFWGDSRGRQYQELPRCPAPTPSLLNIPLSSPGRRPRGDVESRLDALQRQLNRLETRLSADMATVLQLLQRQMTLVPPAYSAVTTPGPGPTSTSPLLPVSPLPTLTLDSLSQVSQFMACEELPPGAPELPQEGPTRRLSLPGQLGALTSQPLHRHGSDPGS
Experiment: hERG channel current block, whole cell recording in HEK293 cells
Assay type: cell-based
Settings: HEK293 cells expressing hERG
A complete answer gives the number followed by the unit.

Field: example entries. Status: answers known.
# smiles_data, reported_value
data = [
    ("Cc1ccc2c(c1)Oc1ccccc1N=C2N1CCN(CC(C)(C)C(=O)O)CC1", "20.40%"),
    ("CC(C)(CN1CCN(C2=Nc3ccccc3Oc3ccccc32)CC1)C(=O)O", "6.2%"),
    ("COc1ccc2c(c1)C(N1CCN(CC(C)(C)C(=O)O)CC1)=Nc1ccccc1O2", "7.20%"),
    ("CC(C)(CN1CCN(C2=Nc3ccccc3Oc3ccccc32)CC1)C(=O)NS(C)(=O)=O", "5.6%"),
]

Give its hERG at 10 micromolar (% blocking of the hERG channel) value. Item: CC(C)(CN1CCN(C2=Nc3ccccc3Oc3ccc(Br)cc32)CC1)C(=O)O
49%
